Attribution: patent US20100022483A1

# Protocol Details: Mammalian cytotoxicity assay (resazurin), COS-1 cells
# Format: cell-based
# Experimental Conditions: African green monkey, read-out: Cytotox. COS-1

Compound	IC50 at 24 h
CCN(CC)CCCC(C)NC(=O)c1ccc(O)c2c1C[C@H]1C[C@H]3[C@H](N(C)C)C(O)=C(C(N)=O)C(=O)[C@@]3(O)C(O)=C1C2=O (stereo partly drawn) [AI]	> 109 µM
CCCCNC(=O)c1cccc(-c2ccc(O)c3c2C[C@H]2C[C@H]4[C@H](N(C)C)C(O)=C(C(N)=O)C(=O)[C@@]4(O)C(O)=C2C3=O)c1 [F]	15.2 µM
CN(C)CCCCNCc1cccc(-c2ccc(O)c3c2C[C@H]2C[C@H]4[C@H](N(C)C)C(O)=C(C(N)=O)C(=O)[C@@]4(O)C(O)=C2C3=O)c1 [CV]	> 135 µM
COc1ccc(CN(C)C)cc1-c1ccc(O)c2c1C[C@H]1C[C@H]3[C@H](N(C)C)C(O)=C(C(N)=O)C(=O)[C@@]3(O)C(O)=C1C2=O [AT]	> 146 µM
CN(C)[C@@H]1C(O)=C(C(N)=O)C(=O)[C@@]2(O)C(O)=C3C(=O)c4c(O)ccc(-c5cccc(C(=O)NCC[N+](C)(C)C)c5)c4C[C@H]3C[C@@H]12 [DA]	> 1.23 µM
COCCNCC(=O)c1ccc(O)c2c1C[C@H]1C[C@H]3[C@H](N(C)C)C(O)=C(C(N)=O)C(=O)[C@@]3(O)C(O)=C1C2=O [AG]	> 158 µM

----------
# Test system: 3T3 fibroblast cells
# Protocol Details: In vitro phototoxicity assay (neutral red; UV light-treated vs dark control plates)
# Type: cell-based
# Experimental Conditions: UV light 50 minutes
Result Type: Photo Toxicity UV Tox50

Compound	Target	Result Type	Value Measured
CCN(CC)CCNC(=O)c1cccc(-c2ccc(O)c3c2C[C@H]2C[C@H]4[C@@H](N(C)C)C(O)=C(C(N)=O)C(=O)[C@@]4(O)C(O)=C2C3=O)c1 [O]	3T3 fibroblast cells	Photo Toxicity UV Tox50	>134.63 µM
CN(C)CCC(=O)c1ccc(O)c2c1C[C@H]1C[C@H]3[C@H](N(C)C)C(O)=C(C(N)=O)C(=O)[C@@]3(O)C(O)=C1C2=O [AV]	3T3 fibroblast cells	Photo Toxicity UV Tox50	>153.46 µM
CN(C)[C@@H]1C(O)=C(C(N)=O)C(=O)[C@@]2(O)C(O)=C3C(=O)c4c(O)ccc(-c5cccc(CCCO)c5)c4C[C@H]3C[C@@H]12 [CM]	3T3 fibroblast cells	Photo Toxicity UV Tox50	>167.5 µM
CN(C)[C@@H]1C(O)=C(C(N)=O)C(=O)[C@@]2(O)C(O)=C3C(=O)c4c(O)ccc(-c5cnc6ccccc6c5)c4C[C@H]3C[C@@H]12 [G]	3T3 fibroblast cells	Photo Toxicity UV Tox50	19.29 µM
CN(C)CC(=O)Nc1ccc(-c2ccc(O)c3c2C[C@H]2C[C@H]4[C@H](N(C)C)C(O)=C(C(N)=O)C(=O)[C@@]4(O)C(O)=C2C3=O)cc1 [BC]	3T3 fibroblast cells	Photo Toxicity UV Tox50	>135.63 µM
CN(C)[C@@H]1C(O)=C(C(N)=O)C(=O)[C@@]2(O)C(O)=C3C(=O)c4c(O)ccc(-c5cccc(C(=O)NCCN6CCOCC6)c5)c4CC3CC12 (stereo partly drawn) [DC]	3T3 fibroblast cells	Photo Toxicity UV Tox50	>136.18 µM
CN(C)CCN(C)Cc1ccc(-c2ccc(O)c3c2C[C@H]2C[C@H]4[C@H](N(C)C)C(O)=C(C(N)=O)C(=O)[C@@]4(O)C(O)=C2C3=O)o1 [CZ]	3T3 fibroblast cells	Photo Toxicity UV Tox50	>137.77 µM
CN(C)[C@@H]1C(O)=C(C(N)=O)C(=O)[C@@]2(O)C(O)=C3C(=O)c4c(O)ccc(-c5cccc(C(=O)NCCN6CCCCC6)c5)c4C[C@H]3C[C@@H]12 [U]	3T3 fibroblast cells	Photo Toxicity UV Tox50	>132.37 µM
CC(C)N1CCN(CC(=O)c2ccc(O)c3c2C[C@H]2C[C@H]4[C@H](N(C)C)C(O)=C(C(N)=O)C(=O)[C@@]4(O)C(O)=C2C3=O)CC1 [BX]	3T3 fibroblast cells	Photo Toxicity UV Tox50	>130.05 µM
CN(C)CCN(C)Cc1cccc(-c2ccc(O)c3c2C[C@H]2C[C@H]4[C@H](N(C)C)C(O)=C(C(N)=O)C(=O)[C@@]4(O)C(O)=C2C3=O)c1 [CT]	3T3 fibroblast cells	Photo Toxicity UV Tox50	>126.03 µM
COCC(=O)c1ccc(O)c2c1C[C@H]1C[C@H]3[C@H](N(C)C)C(O)=C(C(N)=O)C(=O)[C@@]3(O)C(O)=C1C2=O [BW]	3T3 fibroblast cells	Photo Toxicity UV Tox50	>172.1 µM
CN1CCN(CC(=O)c2ccc(O)c3c2C[C@H]2C[C@H]4[C@H](N(C)C)C(O)=C(C(N)=O)C(=O)[C@@]4(O)C(O)=C2C3=O)CC1 [BB]	3T3 fibroblast cells	Photo Toxicity UV Tox50	>135.54 µM

----------
# Protocol Details: in vitro
# Format: cell-based
# Experimental Conditions: Chinese hamster, Cytotox. CHO-K1
Parameter IC50 at 24 h: see the listing below.

Compound	IC50 at 24 h
CN(C)[C@H]1C(O)=C(C(N)=O)C(=O)[C@@]2(O)C(O)=C3C(=O)c4c(O)ccc(-c5cccc(C(N)=O)c5)c4C[C@H]3C[C@@H]12 (stereo in doubt)	> 15.7 µM
CN(C)[C@@H]1C(O)=C(C(N)=O)C(=O)[C@@]2(O)C(O)=C3C(=O)c4c(O)ccc(-c5ccc(NC(=O)CNC(C)(C)C)cc5)c4C[C@H]3C[C@@H]12	> 13.7 µM
CN1CCN(Cc2cccc(-c3ccc(O)c4c3C[C@H]3C[C@H]5[C@H](N(C)C)C(O)=C(C(N)=O)C(=O)[C@@]5(O)C(O)=C3C4=O)c2)CC1	92.3 µM
CN(C)CCc1ccc(O)c2c1C[C@H]1C[C@H]3[C@H](N(C)C)C(O)=C(C(N)=O)C(=O)[C@@]3(O)C(O)=C1C2=O	> 121 µM
COCCNC(=O)c1cccc(-c2ccc(O)c3c2C[C@H]2C[C@H]4[C@H](N(C)C)C(O)=C(C(N)=O)C(=O)[C@@]4(O)C(O)=C2C3=O)c1	> 15.1 µM
CCN(CC)CCCC(C)NC(=O)c1ccc(O)c2c1C[C@H]1C[C@H]3[C@H](N(C)C)C(O)=C(C(N)=O)C(=O)[C@@]3(O)C(O)=C1C2=O (stereo partly shown)	> 109 µM
COCCNCc1ccc(-c2ccc(O)c3c2C[C@H]2C[C@H]4[C@H](N(C)C)C(O)=C(C(N)=O)C(=O)[C@@]4(O)C(O)=C2C3=O)cc1	45.3 to 125 µM
CN(C)CC(=O)Nc1ccc(-c2ccc(O)c3c2C[C@H]2C[C@H]4[C@H](N(C)C)C(O)=C(C(N)=O)C(=O)[C@@]4(O)C(O)=C2C3=O)cc1	> 13.6 µM
CN(C)[C@@H]1C(O)=C(C(N)=O)C(=O)[C@@]2(O)C(O)=C3C(=O)c4c(O)ccc(C(=O)CNCC(C)(C)C)c4C[C@H]3C[C@@H]12	> 42.9 µM
COC(=O)C1CCN(Cc2ccc(O)c3c2C[C@H]2C[C@H]4[C@H](N(C)C)C(O)=C(C(N)=O)C(=O)[C@@]4(O)C(O)=C2C3=O)CC1	> 140 µM
COCCNC(=O)c1ccc(-c2ccc(O)c3c2C[C@H]2C[C@H]4[C@H](N(C)C)C(O)=C(C(N)=O)C(=O)[C@@]4(O)C(O)=C2C3=O)o1	> 20 µM
CN(C)[C@@H]1C(O)=C(C(N)=O)C(=O)[C@@]2(O)C(O)=C3C(=O)c4c(O)ccc(-c5cccc(CCCN6CCCCC6)c5)c4C[C@H]3C[C@@H]12	54.1 µM
CN(C)CCN(C)Cc1ccc(-c2ccc(O)c3c2C[C@H]2C[C@H]4[C@H](N(C)C)C(O)=C(C(N)=O)C(=O)[C@@]4(O)C(O)=C2C3=O)o1	> 13.8 µM
CO/N=C/c1ccc(-c2ccc(O)c3c2C[C@H]2C[C@H]4[C@H](N(C)C)C(O)=C(C(N)=O)C(=O)[C@@]4(O)C(O)=C2C3=O)o1 (stereo in doubt)	3.04 µM
COCCCOCCN(C)Cc1cccc(-c2ccc(O)c3c2C[C@H]2C[C@H]4[C@H](N(C)C)C(O)=C(C(N)=O)C(=O)[C@@]4(O)C(O)=C2C3=O)c1	> 20 µM
CNCCNC(=O)c1cccc(-c2ccc(O)c3c2C[C@H]2C[C@H]4[C@H](N(C)C)C(O)=C(C(N)=O)C(=O)[C@@]4(O)C(O)=C2C3=O)c1	> 143 µM
COc1ccc(CNCc2ccc(-c3ccc(O)c4c3C[C@H]3C[C@H]5[C@H](N(C)C)C(O)=C(C(N)=O)C(=O)[C@@]5(O)C(O)=C3C4=O)cc2)cc1 (stereo in doubt)	13.5 µM
CN(C)[C@@H]1C(O)=C(C(N)=O)C(=O)[C@@]2(O)C(O)=C3C(=O)c4c(O)ccc(-c5cccc(C(=O)NCCN6CCCC6)c5)c4C[C@H]3C[C@@H]12	> 39.6 µM
CN(C)CCNC(=O)c1cccc(-c2cc(N(C)C)c3c(c2O)C(=O)C2=C(O)[C@]4(O)C(=O)C(C(N)=O)=C(O)[C@@H](N(C)C)[C@@H]4C[C@@H]2C3)c1	> 125 µM
CN(C)[C@@H]1C(O)=C(C(N)=O)C(=O)[C@@]2(O)C(O)=C3C(=O)c4c(O)ccc(C(=O)CNc5cccnc5)c4C[C@H]3C[C@@H]12	110 µM
CN(C)[C@@H]1C(O)=C(C(N)=O)C(=O)[C@@]2(O)C(O)=C3C(=O)c4c(O)ccc(-c5cccc(C(=O)NCC[N+](C)(C)C)c5)c4C[C@H]3C[C@@H]12	> 1.23 µM
CN(C)CCCCN(C)Cc1cccc(-c2ccc(O)c3c2C[C@H]2C[C@H]4[C@H](N(C)C)C(O)=C(C(N)=O)C(=O)[C@@]4(O)C(O)=C2C3=O)c1	> 132 µM
